# Test system: HOP-92 NSCLC
# method: NCI-60 one-dose screen, 48 h (100 = growth as untreated, 0 = no growth, -100 = all killed)
# experimentalParameters: 10 µM unless noted
This is part of a sample that, as a whole, favours compounds with a hit. Of some 83,000 tested, about 20% had one in any assay.
property: growth (%)
Number only, in %; omit the unit.

Exam item: For O=C1C=C2C(=CCOC2O)O1 (stereo not given) , what is its reported growth?
Marked response: -22.2

Exam item: Do the same for CCN(CC)CCOC(=O)C(OC(C)C)(c1ccccc1)c1ccccc1 please
Marked response: 80.1

Exam item: Do the same for CCCCCCC(=O)NC1=C(N2CC2)C(=O)C(NC(=O)CCCCCC)=C(N2CC2)C1=O please
Marked response: 65.3

Exam item: Do the same for COC(=O)[C@@H](C)C[C@H](Cc1ccccc1)NC(=O)c1cccc([C@@H](C[C@H](C(C)C)N(C)C(=O)[C@@H](NC(=O)[C@H]2CCCCN2C)C(C)C)OC(C)=O)n1 please
Marked response: 53.7

Exam item: Do the same for O=C1OCC2=C1C(c1ccccc1)c1cc3c(cc1N2)OCO3 (stereo not given) please
Marked response: 30.8
